tested on: HCT-116; test: Toxicity in human HCT116 cells at 20 uM after 40 hrs by LDH assay; format: cell-based; settings: hct-116, 40 h
endpoint.label: Activity

chemical.smiles	Activity
COc1ccc2[nH]cc(/C=N/NC(=O)C(=O)c3cn(Cc4ccc(Cl)cc4)c4ccccc34)c2c1	20 to 25%

Turning to the following molecule.
So for `O=C(N/N=C/c1c[nH]c2ccccc12)C(=O)c1cn(Cc2ccc(Cl)cc2)c2ccccc12` , the logged Activity turned out to be 20 to 25%

----------
target: Cyclin-dependent kinase 4 (Homo sapiens); experiment: Inhibition of CDK4 (unknown origin)
Sequence (P11802 whole entry): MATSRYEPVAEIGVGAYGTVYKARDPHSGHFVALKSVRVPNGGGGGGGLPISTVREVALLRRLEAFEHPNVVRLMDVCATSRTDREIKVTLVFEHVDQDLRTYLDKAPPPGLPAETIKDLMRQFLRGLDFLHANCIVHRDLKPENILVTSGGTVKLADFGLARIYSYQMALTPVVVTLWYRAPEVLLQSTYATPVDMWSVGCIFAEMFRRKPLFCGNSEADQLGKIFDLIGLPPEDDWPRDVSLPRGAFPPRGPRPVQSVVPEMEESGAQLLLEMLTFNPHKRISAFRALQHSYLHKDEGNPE
endpoint.label: IC50 (µM)
Answers are plain numbers, in µM.

`O=C1N=C(C(=O)c2c[nH]c3ccccc23)N/C1=C\c1c[nH]c2cc(O)ccc12` on Cyclin-dependent kinase 4 (Homo sapiens) gives IC50 = 12.5

----------
system: MCF7; test: Toxicity in human MCF7 cells at 20 uM after 40 hrs by LDH assay; type: cell-based; conditions: mcf7, 40 h
endpoint.label: Activity

chemical.smiles	endpoint.label	result
O=C(N/N=C/c1c[nH]c2ccccc12)C(=O)c1cn(Cc2ccc(Cl)cc2)c2ccccc12	Activity	20 to 25%

Turning to the following compound.
So for `COc1ccc2[nH]cc(/C=N/NC(=O)C(=O)c3cn(Cc4ccc(Cl)cc4)c4ccccc34)c2c1` , the logged Activity turned out to be 20 to 25%

----------
tested on: MCF7; assay: Cytotoxicity against human MCF7 cells assessed as cell survival at 10 uM after 48 hrs by MTT assay relative to control; assay type: functional; details: MCF7, 48 h, read-out: Survival
endpoint.label: viability at 10 µM

Reference set (2 entries):
chemical.smiles	result
COc1ccc2c(c1)c(/C=N/NC(=O)C(=O)c1c[nH]c3ccc(Br)cc13)cn2Cc1ccc(Cl)cc1	96.1%
COc1ccc2[nH]cc(/C=N/NC(=O)C(=O)c3cn(Cc4ccc(Cl)cc4)c4ccccc34)c2c1	33.7%

Required: viability at 10 µM, one value per molecule below.
1. COc1ccc2[nH]cc(/C=N/NC(=O)C(=O)c3c[nH]c4ccccc34)c2c1
2. O=C(N/N=C/c1cn(Cc2ccc(Cl)cc2)c2ccc(Br)cc12)C(=O)c1c[nH]c2ccccc12
3. O=C(N/N=C/c1c[nH]c2cc(Br)ccc12)C(=O)c1c[nH]c2ccccc12
4. COc1cc(/C=N/NC(=O)C(=O)c2c[nH]c3ccccc23)cc(OC)c1OC

a:
17.2%
107%
92.7%
110%

Required: viability at 10 µM, one value per molecule below.
1. O=C(N/N=C/c1c[nH]c2cc(F)ccc12)C(=O)c1c[nH]c2ccc(Br)cc12
2. O=C(N/N=C/c1c[nH]c2ccccc12)C(=O)c1cn(Cc2ccc(Cl)cc2)c2ccccc12
3. COc1ccc(-c2[nH]c3ccccc3c2/C=N/NC(=O)C(=O)c2c[nH]c3ccccc23)cc1

a:
1. 97.5%
2. 15%
3. 107%

----------
system: MCF7; test: Cytotoxicity against human MCF7 cells assessed as cell survival at 10 uM after 48 hrs by MTT assay relative to control; assay type: functional; conditions: MCF7, 48 h, read-out: Survival
Assign viability at 10 µM to each entry below.
One number for each entry, in %.

Required: viability at 10 µM, one value per compound below.
1. COc1ccc2c(/C=N/NC(=O)C(=O)c3c[nH]c4ccc(Br)cc34)c[nH]c2c1
2. COc1ccc(Cn2cc(/C=N/NC(=O)C(=O)c3c[nH]c4ccc(Br)cc34)c3cc(OC)ccc32)cc1
3. COc1ccc(/C=N/NC(=O)C(=O)c2c[nH]c3ccccc23)cc1OC
4. O=C(N/N=C/c1c[nH]c2cc(F)ccc12)C(=O)c1c[nH]c2ccccc12
5. COc1cccc(/C=N/NC(=O)C(=O)c2c[nH]c3ccccc23)c1

a:
1: 91.4; 2: 112; 3: 99.8; 4: 40.2; 5: 96.8

----------
Assign Activity to each entry below.
tested on: MDA-MB-231; test: Toxicity in human MDA-MB-231 cells at 20 uM after 40 hrs by LDH assay; format: cell-based; details: mda-mb-231, 40 h

chemical.smiles	result
COc1ccc2[nH]cc(/C=N/NC(=O)C(=O)c3cn(Cc4ccc(Cl)cc4)c4ccccc34)c2c1	20 to 25%

So for `O=C(N/N=C/c1c[nH]c2ccccc12)C(=O)c1cn(Cc2ccc(Cl)cc2)c2ccccc12` , the logged Activity turned out to be 20 to 25%
